- Assay system: Nuclear receptor ROR-gamma (Homo sapiens)
- Assay text: Antagonist activity at Gal4-fused RORgamma (unknown origin) expressed in 293T cells after 24 hrs by luciferase reporter gene assay
- Type: cell-based
pIC50: −log10 of the molar value.
Experimental readout: pIC50

P = CCN1C(=O)c2cccc3c(S(=O)(=O)NCC4CCN(C(C)=O)CC4)ccc1c23
Q = CCN1C(=O)c2cccc3c(S(=O)(=O)N(C(=O)c4ccncc4)c4ccc(OC)cc4)ccc1c23
Consider entries P and Q . Which has the numerically lower pIC50? Label of pick, please.
P

====

- Assay system: Nuclear receptor ROR-gamma (Homo sapiens, UniProt P51449)
- Sequence (P51449 whole entry, the tested form may be a part): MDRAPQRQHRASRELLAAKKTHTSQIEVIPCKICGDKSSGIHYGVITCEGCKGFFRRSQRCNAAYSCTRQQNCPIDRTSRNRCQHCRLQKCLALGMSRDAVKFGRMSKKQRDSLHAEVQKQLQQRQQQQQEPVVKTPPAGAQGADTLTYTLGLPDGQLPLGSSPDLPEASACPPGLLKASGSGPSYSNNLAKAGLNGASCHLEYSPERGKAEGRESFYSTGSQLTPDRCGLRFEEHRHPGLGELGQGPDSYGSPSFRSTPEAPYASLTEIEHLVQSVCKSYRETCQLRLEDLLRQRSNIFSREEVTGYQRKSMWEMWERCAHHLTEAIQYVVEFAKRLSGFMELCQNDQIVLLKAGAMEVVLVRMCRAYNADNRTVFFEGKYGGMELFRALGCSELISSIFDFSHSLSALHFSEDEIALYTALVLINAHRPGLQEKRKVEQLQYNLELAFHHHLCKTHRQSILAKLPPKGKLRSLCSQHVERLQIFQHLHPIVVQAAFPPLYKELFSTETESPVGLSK
- Assay text: Antagonist activity at human His6-tagged RORgamma ligand binding domain (262 to 507 aa) assessed as inhibition of SRC1-4 co-activator peptide recruitment by luminescence-based AlphaScreen assay
pIC50: −log10 of the molar value.
Experimental readout: pIC50

P = NC(=O)c1ccc(NC(=O)c2cccc(COc3ccc(Cl)cc3)c2)cc1
Q = C=CCn1c(COc2ccc(Cl)cc2)nnc1SCC(=O)N/N=C/c1cccc(O)c1
Which record would sort first by descending pIC50, P or Q ? Label of pick, please.
Q
(Q: 4.25, P: 3.77)

P = CCN1C(=O)c2cccc3c(S(=O)(=O)Nc4ccccc4C(=O)c4ccccc4)ccc1c23
Q = CCN1C(=O)c2cccc3c(S(=O)(=O)N(C(=O)c4ccncc4)c4ccc(OC)cc4)ccc1c23
Consider entries P and Q . Which has the numerically lower pIC50? Label of pick, please.
P
(P: 3.81, Q: 5.19)

Where do these numbers come from? They come from ChEMBL document CHEMBL3232726.
